Test: qHTS for Inhibitors of human tyrosyl-DNA phosphodiesterase 1 (TDP1): qHTS in cells in presence of CPT; also: nearly all actives have a fitted effect of over 55% in size; also: potency is read from the fitted curve at half-maximal effect
Conditions: chicken DT40 Tdp1-/-;hTDP1 cells + 20 nM CPT, ATP luminescence, 48 h; series mostly up to 46.2 µM
Hit rate of the full screen: of about 420,000 compounds, about 50,000 (12%) were called active. Not shown: some 26% with an inconclusive outcome. The entries come from a sample that favours actives as a whole.
Observable: Potency

Examples from the recorded data:
Molecule: COc1ccccc1CNC(=O)COC(=O)c1cccs1
Test Result: inactive
//
Molecule: CC1(C)O[C@@H]2[C@H](O1)[C@@H](COS(=O)(=O)O)O[C@H]2n1ccc(=O)[nH]c1=O
Test Result: inactive
//
Molecule: Cc1ccc(NC(=O)Cc2nnc(SCC(=O)Nc3nncs3)n2C)cc1
Test Result: inactive
//
Molecule: CC1CCN(S(=O)(=O)c2ccc3c(c2)n(C)c(=O)n3C)CC1
Test Result: inactive
//
Molecule: COc1ccc(Cl)cc1NC(=O)NC(C)C(C)(C)C (stereo not drawn)
Test Result: inactive
//
Molecule: CCOCCn1ccc2c(OCC(=O)NCc3ccc(C)cc3)cccc2c1=O
Test Result: inactive
//
Molecule: CC(=O)Nc1ccc(NC(=O)COc2ccc(S(=O)(=O)NC(C)c3ccccc3)cc2)cc1 (stereo not drawn)
Test Result: inactive
//
Molecule: CC1(C)Cc2c(cnn2-c2cccc(F)c2)C(NC(=O)c2cc[n+]([O-])cc2)C1 (stereo not drawn)
Test Result: inactive
//
Molecule: CCOC(=O)C(Cc1ccc(N)cc1)N1C(=O)c2ccccc2C1=O (stereo not drawn)
Test Result: inactive
//
Molecule: O=C(NCCC1=CCCCC1)c1ccc(-n2cncn2)cc1
Test Result: inactive

Switching to the query record.
Answer with the recorded Potency of c1ccc2c(c1)CSc1sccc1C2=C1CCNCC1 only. 20.6 µM (active)

====

Test: qHTS for Inhibitors of human tyrosyl-DNA phosphodiesterase 1 (TDP1): qHTS in cells in presence of CPT; also: nearly all actives have a fitted effect of over 55% in size; also: potency is read from the fitted curve at half-maximal effect
Details: chicken DT40 Tdp1-/-;hTDP1 cells + 20 nM CPT, ATP luminescence, 48 h; series mostly up to 46.2 µM
Out of some 420,000 compounds screened, about 50,000 (12%) were called active. About 26% were inconclusive and are not listed. What follows is part of a selection rich in actives, with near analogues and random picks from the rest.
Observable: Potency

Examples from the recorded data:
Compound: Cc1cccc(C)c1NC(=O)N1CC=C(n2c(=O)[nH]c3ccccc32)CC1
Test Result: 14.6 µM (active)

Compound: Cc1ccc(C(=O)NC(=S)NCc2cccnc2)cc1
Test Result: inactive

Compound: COc1cc(C=O)c(Br)cc1OCC(=O)NCc1ccccc1
Test Result: inactive

Compound: COc1ccc(OCC(=O)Nc2cc(C)c(Cl)cc2OC)c([N+](=O)[O-])c1
Test Result: inactive

Compound: Cc1ccc(Cn2cc(C(=O)NN)c(=O)c3ccc(F)cc32)cc1
Test Result: inactive

Compound: CCOC(=O)c1cnc(-n2nc(C)cc2C)nc1-n1nc(C)cc1C
Test Result: inactive

Compound: COc1cc(/C=N/O)cc(Br)c1OCc1cccc(Cl)c1
Test Result: inactive

Compound: O=C(NCc1ccc(Cl)c(Cl)c1)c1cccnc1
Test Result: inactive

Compound: CCCCCCc1cc2cc(-c3nnc(-c4ccccc4)o3)c(=O)oc2cc1O
Test Result: 14.6 µM (active)

Compound: CC(C)(CNC(=O)CNC(=O)C1CCCCC1)N1CCOCC1
Test Result: inactive

Switching to the query record.
Answer with the recorded Potency of O=C(NCc1cccc(Cl)c1)C1=CC=CN2CCS(=O)(=O)N=C12 only. inactive
